tgt: IRAK4 (Homo sapiens, UniProt Q9NWZ3)
Construct: endogenous in cells; host or cells: OCI-LY10
Sequence (Q9NWZ3 1-460): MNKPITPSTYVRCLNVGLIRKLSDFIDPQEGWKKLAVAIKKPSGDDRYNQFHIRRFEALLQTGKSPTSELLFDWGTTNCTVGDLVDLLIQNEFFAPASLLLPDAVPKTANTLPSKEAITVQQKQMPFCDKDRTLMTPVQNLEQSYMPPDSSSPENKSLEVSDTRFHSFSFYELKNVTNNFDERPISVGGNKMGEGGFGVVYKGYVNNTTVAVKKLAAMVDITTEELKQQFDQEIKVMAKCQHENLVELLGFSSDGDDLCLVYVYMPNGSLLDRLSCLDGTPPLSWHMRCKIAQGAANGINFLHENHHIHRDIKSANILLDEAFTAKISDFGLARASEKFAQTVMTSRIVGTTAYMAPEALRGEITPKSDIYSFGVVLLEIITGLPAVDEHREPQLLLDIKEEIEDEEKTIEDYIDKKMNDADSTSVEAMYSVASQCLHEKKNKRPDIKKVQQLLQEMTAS
measurement-description: IRAK4 MSD Degradation in OCI-LY10
Format: cell-based
condition: OCI-LY10 cells, 4 hrs incubation, read-out: IRAK4 degradation in OCI-LY10 at 4 hrs: DC50
measurement-kind: DC50

COc1cc2nn([C@H]3CC[C@H](CN(C)[C@H]4CC[C@@]5(CC4)C[C@@H](Cc4cccc6c4n(C)c(=O)n6C4CCC(=O)NC4=O)C5)CC3)cc2cc1NC(=O)c1cccc(C(F)(F)F)n1 (some centres unmarked): 50 to 100 nM
Cn1c(=O)n(C2CCC(=O)NC2=O)c2cccc(CCC3CC4(CCN(C[C@H]5CC[C@H](n6cc7cc(NC(=O)c8cnn9cccnc89)c(C(C)(C)O)cc7n6)CC5)CC4)C3)c21 (some centres unmarked): < 50 nM
CN(C[C@H]1CC[C@H](n2cc3cc(NC(=O)c4ccccn4)c(C(C)(C)O)cc3n2)CC1)C1CCN(c2cccc3c2n(C)c(=O)n3C2CCC(=O)NC2=O)CC1 (some centres unmarked): < 50 nM
COc1cc2nn([C@H]3CC[C@H](CN4CCC(c5cccc6c5n(C)c(=O)n6C5CCC(=O)NC5=O)CC4)CC3)cc2cc1NC(=O)c1ccncn1 (some centres unmarked): < 50 nM
CN(CCCC#Cc1cccc2c1n(C)c(=O)n2C1CCC(=O)NC1=O)C[C@H]1CC[C@H](n2cc3cc(NC(=O)c4cccc(C(F)(F)F)n4)c(C(C)(C)O)cc3n2)CC1 (some centres unmarked): < 50 nM
COc1cc2nn([C@H]3CC[C@H](CN4CCN(CCc5cccc6c5n(C)c(=O)n6C5CCC(=O)NC5=O)CC4)CC3)cc2cc1NC(=O)c1cccc(C(F)(F)F)n1 (some centres unmarked): < 50 nM
COc1cc2nn([C@H]3CC[C@H](CNc4cccc5c4n(C)c(=O)n5C4CCC(=O)NC4=O)CC3)cc2cc1NC(=O)c1cccc(C(F)(F)F)n1 (some centres unmarked): 500 to 1000 nM
CN(C[C@H]1CC[C@H](n2cc3cc(NC(=O)c4cccc(C(F)(F)F)n4)c(C(C)(C)O)cc3n2)CC1)C1CCN(c2cccc3c2n(C)c(=O)n3C2CCC(=O)NC2=O)CC1 (some centres unmarked): < 50 nM
CN(C[C@H]1CC[C@H](n2cc3cc(NC(=O)c4cccc(C(F)(F)F)n4)c(C(C)(C)O)cc3n2)CC1)C1CCN(Cc2ccc3c(c2)C(=O)N(C)C3C2CCC(=O)NC2=O)CC1 (some centres unmarked): < 50 nM
CN(C[C@H]1CC[C@H](n2cc3cc(NC(=O)c4cccc(C(C)(C)C)n4)c(C(C)(C)O)cc3n2)CC1)C1CCN(Cc2cccc3c2n(C)c(=O)n3C2CCC(=O)NC2=O)CC1 (some centres unmarked): < 50 nM

DC50 for IRAK4 (Homo sapiens, UniProt Q9NWZ3) with input CN(C[C@H]1CC[C@H](n2cc3cc(NC(=O)c4ccccn4)c(C(C)(C)O)cc3n2)CC1)C1CCN(c2ccc3c(c2)n(C)c(=O)n3C2CCC(=O)NC2=O)CC1 (some centres unmarked) equals < 50 nM
